- Test system: methionine N^α -acetyltransferase from S. cerevisiae
- Assay type: biochemical, Saccharomyces cerevisiae
- condition_parameters: salt 0.01 mM; 5 min room temperature, 50 mM HEPES pH 7.4, 1 mM DTT; substrate PAI (N=3)
quantity_measured: Enzyme Activity (%)
State just the number; it will be interpreted in %.

Answered examples (2):
Fetch value of Enzyme Activity (%) on methionine N^α -acetyltransferase from S. cerevisiae for O=S(=O)([O-])[O-].[Fe+2] . 108

Find Enzyme Activity (%) for O=S(=O)([O-])[O-].[Zn+2] on methionine N^α -acetyltransferase from S. cerevisiae and write it down. 95

Continuing:
Name the value of Enzyme Activity (%) reported for [Cl-].[Cl-].[Co+2] when tested on methionine N^α -acetyltransferase from S. cerevisiae. 106

Write Enzyme Activity (%) of [Cl][Cd][Cl] ; system used: methionine N^α -acetyltransferase from S. cerevisiae 103

----------
- system_name: AAA1 N^α -acetyltransferase (N^α -AT) (Saccharomyces cerevisiae, UniProt P07347+P12945)
- Sequence (P12945 2-854 limits assumed): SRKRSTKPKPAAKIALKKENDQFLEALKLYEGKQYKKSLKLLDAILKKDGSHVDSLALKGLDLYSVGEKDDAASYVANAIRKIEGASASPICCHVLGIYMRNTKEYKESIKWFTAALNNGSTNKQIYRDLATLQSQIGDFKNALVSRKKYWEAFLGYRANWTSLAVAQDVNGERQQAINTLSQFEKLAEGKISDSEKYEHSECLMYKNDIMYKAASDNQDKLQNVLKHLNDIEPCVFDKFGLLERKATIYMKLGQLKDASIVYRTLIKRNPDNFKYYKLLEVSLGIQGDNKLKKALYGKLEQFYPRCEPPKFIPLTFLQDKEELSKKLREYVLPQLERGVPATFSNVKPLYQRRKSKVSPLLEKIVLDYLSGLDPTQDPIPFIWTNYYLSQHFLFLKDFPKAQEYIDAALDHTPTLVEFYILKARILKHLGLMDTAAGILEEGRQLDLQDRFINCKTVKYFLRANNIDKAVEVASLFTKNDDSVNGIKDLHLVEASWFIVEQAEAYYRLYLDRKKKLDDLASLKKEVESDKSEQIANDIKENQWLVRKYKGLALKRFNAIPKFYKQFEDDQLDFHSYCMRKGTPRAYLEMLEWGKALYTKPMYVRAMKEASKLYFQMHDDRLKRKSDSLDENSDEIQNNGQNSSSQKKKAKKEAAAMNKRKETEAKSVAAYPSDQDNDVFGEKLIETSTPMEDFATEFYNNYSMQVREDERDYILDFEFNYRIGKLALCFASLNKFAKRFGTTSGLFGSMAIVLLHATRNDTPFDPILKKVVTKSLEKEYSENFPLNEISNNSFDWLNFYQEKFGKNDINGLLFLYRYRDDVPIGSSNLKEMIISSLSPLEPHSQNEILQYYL
- Sequence (P07347 1-238): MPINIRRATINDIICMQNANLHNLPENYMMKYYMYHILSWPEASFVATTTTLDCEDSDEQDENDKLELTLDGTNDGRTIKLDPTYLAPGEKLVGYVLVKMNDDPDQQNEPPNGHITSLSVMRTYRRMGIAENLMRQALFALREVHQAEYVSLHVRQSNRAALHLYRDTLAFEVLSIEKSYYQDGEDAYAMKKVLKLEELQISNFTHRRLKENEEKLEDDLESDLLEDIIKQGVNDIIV
- assay_notes: Relative activity of N^α -AT for N^α -acetylation of synthetic peptides
- Type: biochemical
- condition_parameters: Table 6, influence of the amino terminal residue
Ends that are not written are not given here.
quantity_measured: Activity (%) (mean activity ± S.D.) N^a -AT
Express it in %; write the number only.

# example entries with known answers
Item SIPETQKGVIFYESHGKLEYKDIP (SIPETQKGVIFYESHGKLEYKDIP) [Alcohol dehydrogenase (1-24) (Yeast)] : provide Activity (%) (mean activity ± S.D.) N^a -AT 102

Give the measured Activity (%) (mean activity ± S.D.) N^a -AT for FIPETQKGVIFYESHGKLEYKDIP (FIPETQKGVIFYESHGKLEYKDIP) 9

Look up and report measured Activity (%) (mean activity ± S.D.) N^a -AT for this entry: TIPETQKGVIFYESHGKLEYKDIP (TIPETQKGVIFYESHGKLEYKDIP) 103

Please find the next substance below.
Return Activity (%) (mean activity ± S.D.) N^a -AT for the following substance: HIPETQKGVIFYESHGKLEYKDIP (HIPETQKGVIFYESHGKLEYKDIP; also: tritium label) 19
